SUBJECT OF TEST: p53 Y220C mutant protein (amino acid residues 94-293) (Homo sapiens, UniProt P04637, Y220C)
Construct: p53 Y220C mutant protein (amino acid residues 94-293)
ASSAY NAME: Thermal Shift Assay (TSA), dTM
Format: binding
EXPERIMENTAL SETUP: thermal shift, 10 uM compound; read-out: TSA P53 Y220C dTM (10 uM)
READOUT LABEL: ΔTm at 10 µM

Before answering, review these 9 worked examples.
The compound COc1ccc(C(=O)N2CCC2)cc1NCC#Cc1nc2c(N[C@@H]3CCN(C)C[C@@H]3F)cccn2c1SC(F)(F)F showed ΔTm at 10 µM equal to 5 to 10 °C

The measured ΔTm at 10 µM associated with CCNC(=O)c1ccc(OC)c(NCC#Cc2nc3c(N[C@@H]4CCN(C)C[C@@H]4F)cccn3c2SC(F)(F)F)c1 reads ≥ 10 °C

The compound listed as CNC(=O)c1ccc(NCC#Cc2nc3c(N[C@H]4Cc5cncn5C4)cccn3c2SC(F)(F)F)c(OC)c1 shows ΔTm at 10 µM equal to 5 to 10 °C

For reference, reported ΔTm at 10 µM for CNC(=O)c1ccc(NCC#Cc2nc3c(N[C@@H]4CCN(CC(C)(C)O)C[C@@H]4F)cccn3c2SC(F)(F)F)c(OC)c1 stands at ≥ 10 °C

Looking up CNC(=O)c1ccc(O)c(NCC#Cc2cc3c(N[C@@H]4CCN(C)C[C@@H]4F)nccn3c2SC(F)(F)F)c1 , I see its ΔTm at 10 µM listed as ≥ 10 °C

Sure, the documented ΔTm at 10 µM for CNC(=O)c1ccc(OC)c(NCC#Cc2cc3c(N[C@@H]4CCN(C)C[C@@H]4F)nccn3c2SC(F)(F)F)n1 is ≥ 10 °C

Record summary for COc1cc(S(C)(=O)=O)ccc1NCC#Cc1nc2c(N[C@@H]3CCNC[C@@H]3F)cccn2c1SC(F)(F)F : reported ΔTm at 10 µM = ≥ 10 °C

GET /value?item= CNC(=O)c1cnc(NCC#Cc2nc3c(N[C@@H]4CCN(C)C[C@@H]4F)cccn3c2SC(F)(F)F)c(OC)c1 &field=ΔTm at 10 µM returns 5 to 10 °C

Sample CNC(=O)c1ccc(NCC#Cc2nc3c(N[C@H]4CCc5ncnn5C4)cccn3c2SC(F)(F)F)c(OC)c1 (stereo in doubt) ; ΔTm at 10 µM observed: 5 to 10 °C

Could you now consider this next compound?
Summary for this compound, CNC(=O)c1ccc(OC)c(NCC#Cc2nc3c(N[C@@H]4CNC[C@@H]4F)cccn3c2SC(F)(F)F)n1 : ΔTm at 10 µM is ≥ 10 °C

---

System: H1299 p53 R273H
ASSAY NAME: Cell Proliferation Assay (CellTiter-Glo, CTG), H1299 p53 R273H (NClH1299-inducible p53 R273H)
Type: cell-based
EXPERIMENTAL SETUP: Homo sapiens, NCI-H1299, 120 h, CellTiter-Glo, H1299 p53 R273H, 5 days
Where a name gives a salt, the structure may show the parent alone.
READOUT LABEL: IC50

Answered cases to consult:
Entry under test: CNC(=O)c1ccc(NCC#Cc2nc3c(N[C@@H]4CCN(C)C[C@@H]4F)cc(F)cn3c2CC(F)(F)F)c(OC)c1 [Example 99, formic acid salt] . Its IC50 was 5 to 8 µM

Documented IC50 of COc1cc(S(=O)(=O)N(C)C)ccc1NCC#Cc1nc2c(N[C@@H]3CCN(C)C[C@@H]3F)cccn2c1CC(F)(F)F : 5 to 8 µM

Documented IC50 of CNC(=O)c1ccc(OC)c(NCC#Cc2nc3c(N[C@@H]4CCNC[C@@H]4F)cccn3c2CC(F)(F)F)c1 : ≥ 10 µM

response.value for CNC(=O)c1cc(NCC#Cc2cc3c(N[C@@H]4CCN(C)C[C@@H]4F)nccn3c2SC(F)(F)F)c2nccn2c1 (field: IC50) = ≥ 10 µM

GET /value?item= COc1cc(C(=O)NC(C)C)ccc1NCC#Cc1nc2c(N[C@@H]3CCN(C)C[C@@H]3F)cccn2c1CC(F)(F)F &field=IC50 returns 5 to 8 µM

Query COc1cc2c(cc1NCC#Cc1nc3c(N[C@@H]4CCN(C)C[C@@H]4F)cccn3c1SC(F)(F)F)CNC2=O yields IC50 of 5 to 8 µM

New cases:
Record CNC(=O)c1ccc(NCC#Cc2nc3c(N[C@H]4CCC(=O)N(C)C4)cccn3c2SC(F)(F)F)c(OC)c1 . Reported IC50: 5 to 8 µM
